Assay: Multiple-dose study of sulopenem delivered intravenously: plasma pharmacokinetics
Assay type: in vivo, human
Settings: human, plasma, iv, 1600 mg, intravenous 1600 mg (1.5 h BID); Day 1
Description: The pharmacokinetics of sulopenem delivered intravenously were studied in a randomized, investigator-blind, subject-blind, sponsor-open, placebo-controlled, multiple-dose study of sulopenem. There were 5 cohorts dosed. Each subject was dosed for up to 14 days. Each cohort consisted of 10 subjects.
parameter.measured: Cmax (ng/mL)

smiles.entry: C[C@@H](O)[C@H]1C(=O)N2C(C(=O)O)=C(S[C@H]3CC[S@@+]([O-])C3)S[C@H]12
parameter.measured: Cmax
value.unit: ng/mL
value.observed: 40100

====

Assay: Multiple-dose study of sulopenem delivered intravenously: plasma pharmacokinetics
Format: in vivo, human
Details: human, plasma, iv, 1200 mg, intravenous 1200 mg (1 h BID); Day 1

smiles.entry: C[C@@H](O)[C@H]1C(=O)N2C(C(=O)O)=C(S[C@H]3CC[S@@+]([O-])C3)S[C@H]12
Cmax (ng/mL): 32500

====

Experiment: Multiple-dose study of sulopenem delivered intravenously: plasma pharmacokinetics
Assay type: in vivo, human
Settings: human, plasma, iv, 1200 mg, intravenous 1200 mg (1 h BID); Day 14; median [range]
Experimental: The pharmacokinetics of sulopenem delivered intravenously were studied in a randomized, investigator-blind, subject-blind, sponsor-open, placebo-controlled, multiple-dose study of sulopenem. There were 5 cohorts dosed. Each subject was dosed for up to 14 days. Each cohort consisted of 10 subjects.

smiles.entry: C[C@@H](O)[C@H]1C(=O)N2C(C(=O)O)=C(S[C@H]3CC[S@@+]([O-])C3)S[C@H]12
value.unit: h
Tmax: 1

====

Experiment: Multiple-dose study of sulopenem delivered intravenously: plasma pharmacokinetics
Assay type: in vivo, human
Conditions: human, plasma, iv, 800 mg, intravenous 800 mg (3 h BID); Day 1

smiles.entry: C[C@@H](O)[C@H]1C(=O)N2C(C(=O)O)=C(S[C@H]3CC[S@@+]([O-])C3)S[C@H]12
value.unit: µg·h/mL
AUC(0-t): 22.3
